# Tested on: CCRIS mutagenicity, Ames/micronucleus/aberration tests
# assay explanation: CCRIS mutagenicity studies
# condition set: Test System: AMES SALMONELLA TYPHIMURIUM; Strain/Indicator: TA100; Metabolic Activation: NONE
The source made the active and inactive calls. No rule for the calls is given here.
reported endpoint: mutagenic call

>>> measured_result("CCOC(=O)N(C)C")
"inactive; negative"
>>> measured_result("CCCCCC(O)/C=C/C=O (stereo not drawn)")
"inactive; negative"
>>> measured_result("COC(=O)C(N)Cc1ccc(Cl)cc1 (stereo not drawn)")
"inactive; negative"

---

# System: CCRIS mutagenicity, Ames/micronucleus/aberration tests
# assay explanation: CCRIS mutagenicity studies
# condition set: Test System: AMES SALMONELLA TYPHIMURIUM; Strain/Indicator: TA98; Metabolic Activation: HAMSTER, LIVER, S-9, AROCLOR 1254 (10%); Method: PREINCUBATION
Activity calls are given as the source filed them. No rule for the calls is given here.
reported endpoint: mutagenic call

>>> measured_result("CCCCC(CC)CO (stereo not given)")
"inactive; negative"
>>> measured_result("NCCCNCCCN")
"inactive; negative"
>>> measured_result("CC1CCCC1")
"inactive; negative"
>>> measured_result("CC(C)NC(C)C")
"inactive; negative"
>>> measured_result("COC[CH2][Hg][Cl]")
"inactive; negative"
>>> measured_result("COc1ccc(C(=O)Nc2ccccc2)cc1[N+](=O)[O-]")
"active; positive"
>>> measured_result("CCCCCCCCCCCCCCCCC1CO1 (stereo not given)")
"inactive; negative"
>>> measured_result("Cc1cc(-c2ccc(N)c(C)c2)ccc1N")
"active; positive"
>>> measured_result("CCCCC(CC)COC(=O)CCCCCCCCC(=O)OCC(CC)CCCC (stereo not given)")
"inactive; negative"
>>> measured_result("CCOP(=O)(NC(C)C)Oc1ccc(SC)c(C)c1 (stereo not given)")
"inactive; negative"
>>> measured_result("C=CC(=O)OCC(CO)(COC(=O)C=C)COC(=O)C=C")
"inactive; negative"
>>> measured_result("Nc1ccc(Cc2ccc(N)c(Cc3ccc(N)cc3)c2)cc1")
"active; positive"
>>> measured_result("C=CC(=O)OC")
"inactive; negative"
>>> measured_result("O=C1NC(=O)C(c2ccccc2)(c2ccccc2)N1")
"inactive; negative"
>>> measured_result("CC(=O)NS(=O)(=O)c1ccc(N)cc1")
"inactive; negative"

Where do these numbers come from? They come from PubChem BioAssay AID1259407.
